Can you tell me pKi for the items I'm about to list?
test: Displacement of [3H]DTG from sigma 2 receptor in rat PC12 cells after 2 hrs by liquid scintillation counting; assay type: cell-based; conditions: pc-12
Note on pKi: it is the negative log10 of concentration, concentration in mol/L.

Query: I'd like to know its pKi. The compound in question is COc1ccccc1CCCN1CCN(Cc2cc3ccccc3o2)CC1
Response: 7.28

Query: Would you mind telling me what pKi value was observed for COc1cccc(CCN2CCN(Cc3cc4ccccc4o3)CC2)c1 ?
Response: 7.85

Query: Tell me the measured pKi of c1ccc(CCN2CCN(Cc3cc4ccccc4o3)CC2)cc1 , please.
Response: 6.88

Query: Field request: pKi | item: COc1ccccc1CCCCN1CCN(Cc2cc3ccccc3o2)CC1
Response: 6.89

Query: I have this compound here, COc1cccc(CCCCN2CCN(Cc3cc4ccccc4o3)CC2)c1 , and I need its recorded pKi.
Response: 6.68

Query: Could you share which pKi value was measured for COc1ccc(CCN2CCN(Cc3cc4ccccc4o3)CC2)cc1 ?
Response: 7.00

----------
target: D(2) dopamine receptor (Homo sapiens); test: Displacement of [3H]N-methylspiperone from D2 after 1.5 hrs by liquid scintillation counting
Sequence (P14416 whole entry): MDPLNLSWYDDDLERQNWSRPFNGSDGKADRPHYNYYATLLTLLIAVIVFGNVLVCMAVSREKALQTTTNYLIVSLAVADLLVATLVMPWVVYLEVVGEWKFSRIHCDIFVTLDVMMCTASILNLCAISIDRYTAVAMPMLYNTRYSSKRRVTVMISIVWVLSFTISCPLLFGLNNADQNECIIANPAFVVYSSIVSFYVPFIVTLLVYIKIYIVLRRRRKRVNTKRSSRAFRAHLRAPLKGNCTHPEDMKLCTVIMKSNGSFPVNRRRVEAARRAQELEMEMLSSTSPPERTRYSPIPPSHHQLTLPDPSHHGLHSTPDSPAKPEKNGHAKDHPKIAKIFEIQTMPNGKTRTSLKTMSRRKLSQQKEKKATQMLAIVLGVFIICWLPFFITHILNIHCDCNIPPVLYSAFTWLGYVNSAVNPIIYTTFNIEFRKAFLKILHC
Property: Ki (nM)
Answer in nM, number only, no unit symbol.

Query: Can you look up the measured Ki of c1ccc(CCCN2CCN(Cc3cc4ccccc4o3)CC2)cc1 for me?
Response: 1020

Query: So what does the record say about Ki for COc1ccccc1CCCCN1CCN(Cc2cc3ccccc3o2)CC1 ?
Response: 432

Query: Which value of Ki has been reported for c1ccc(CCCCN2CCN(Cc3cc4ccccc4o3)CC2)cc1 in the records?
Response: 89

Source listed as ChEMBL document CHEMBL1833923.
